All values here come from the RNAGym collection of RNA variant scans (doi:10.7554/elife.90254).

Consider the following variants; for each one, report its self-cleavage.
B1: LINE1-full (parent)
chain: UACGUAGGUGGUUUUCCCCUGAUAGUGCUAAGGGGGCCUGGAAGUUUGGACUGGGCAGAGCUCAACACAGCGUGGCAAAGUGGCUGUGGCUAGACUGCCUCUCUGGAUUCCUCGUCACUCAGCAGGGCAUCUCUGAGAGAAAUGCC

# Variants of: B1
# Test: self-cleavage, relative activity (ratio to wild type); higher = more cleavage; in vitro, sequencing; the parent is a self-cleaving ribozyme

In the examples that follow, each entry is paired with its recorded self-cleavage.
A24U A77U :: 0.93
U15C U108A :: 2.1

Hi! Can you tell me self-cleavage for each of these variants?
1. U12A U47A
2. A31U A121G
3. A57U A59G
4. A43G U62C
5. G36A C118G

0.67
1
0.05
0.1
1.04

Hi! Can you tell me self-cleavage for each of these variants?
1. G40A U119A
2. U13A U130C
3. G7C U102C

1. 0.94
2. 1.22
3. 0

Hi! Can you tell me self-cleavage for each of these variants?
1. A6G U132C
2. A2G A129G
3. A107G A142U
4. U9C A142G
5. U9C A94U
6. U47A C99A
7. U62C U85C
8. U14A A31G

1. 0.9
2. 0.46
3. 0.74
4. 1.24
5. 0.21
6. 0.48
7. 0.05
8. 0.89

Hi! Can you tell me self-cleavage for each of these variants?
1. U20A A50G
2. U13C A124G
3. G33U A107G
4. A22G A65G

1.2
1.04
1.74
0.08
